Molecular target: FXR receptor (Homo sapiens, UniProt Q96RI1)
Construct: expressed in transfected cells; host or cells: 293T cells
Sequence (Q96RI1 1-486): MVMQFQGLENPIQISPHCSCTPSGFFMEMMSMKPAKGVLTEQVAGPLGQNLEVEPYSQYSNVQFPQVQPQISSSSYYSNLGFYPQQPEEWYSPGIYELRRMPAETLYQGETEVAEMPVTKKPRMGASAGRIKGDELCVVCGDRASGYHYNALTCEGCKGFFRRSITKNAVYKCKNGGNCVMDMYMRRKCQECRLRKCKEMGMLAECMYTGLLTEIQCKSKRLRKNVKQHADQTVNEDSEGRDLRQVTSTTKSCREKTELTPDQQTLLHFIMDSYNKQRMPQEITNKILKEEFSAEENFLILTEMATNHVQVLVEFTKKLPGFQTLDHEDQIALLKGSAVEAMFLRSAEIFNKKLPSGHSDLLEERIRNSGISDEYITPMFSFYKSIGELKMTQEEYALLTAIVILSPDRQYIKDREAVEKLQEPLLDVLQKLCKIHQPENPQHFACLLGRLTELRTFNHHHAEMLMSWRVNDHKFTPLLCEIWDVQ
Assay: FXR activity at the cell level (FXRE luciferase reporter in 293T cells)
Format: cell-based
Settings: 293T cells, FXRE luciferase reporter; read-out: EC50 (cell level)
measurement.type: pEC50
Give bare numbers, as −log10 of the molar value.

# batch size: 5; output pEC50 per entry
1. O=c1[nH]c(-c2ccc(N3C4CCC3CC(OCc3c(-c5c(Cl)cccc5Cl)noc3C3CC3)C4)nc2)no1 (stereo not drawn) [Example 32]
2. O=c1[nH]c(-c2ccc(N3CCC(OCc4c(-c5c(Cl)cccc5Cl)noc4C4CC4)CC3)cc2)no1 [Example 2]
3. O=c1[nH]c(-c2ccc(N3C4CCC3CC(OCc3c(-c5ccccc5C(F)(F)F)noc3C3CC3)C4)nc2)no1 (stereo not drawn) [Example 33]
4. O=c1[nH]c(-c2ccc(N3CCC(OCc4c(-c5c(Cl)cccc5Cl)noc4C4CC4)CC3)cn2)no1 [Example 14]
5. Cc1ccccc1-c1noc(C2CC2)c1COC1CC2CCC(C1)N2c1ccc(-c2noc(=O)[nH]2)c(F)c1 (stereo not drawn) [Example 42]

[10.11, 9.00, 9.41, 8.30, 9.02]

# batch size: 7; output pEC50 per entry
1. O=c1[nH]c(-c2cccc(N3CCCC(OCc4c(-c5c(Cl)cccc5Cl)noc4C4CC4)CC3)c2)no1 (stereo not drawn) [Example 3]
2. O=c1[nH]c(-c2ccc(N3CCCC(OCc4c(-c5c(Cl)cccc5Cl)noc4C4CC4)CC3)cc2)no1 (stereo not drawn) [Example 4]
3. O=c1[nH]c(-c2ccc(N3C4CCC3CC(OCc3c(-c5c(F)cccc5F)noc3C3CC3)C4)nc2)no1 (stereo not drawn) [Example 31]
4. O=c1[nH]c(-c2ccc(N3CCC(OCc4c(-c5ccccc5C(F)(F)F)noc4C4CC4)CC3)cc2)no1 [Example 8]
5. S=c1[nH]c(-c2ccc(N3CCC(OCc4c(-c5c(Cl)cccc5Cl)noc4C4CC4)CC3)cc2)no1 [Example 20]
6. O=c1[nH]c(-c2ccc(N3CCC(OCc4c(-c5c(Cl)cccc5Cl)noc4-c4ccccc4)CC3)cc2)no1 [Example 12]
7. O=c1[nH]c(-c2c(F)cc(N3CCC(OCc4c(-c5ccccc5OC(F)(F)F)noc4C4CC4)CC3)cc2F)no1 [Example 30]

1. 7.85
2. 9.22
3. 9.22
4. 8.30
5. 8.30
6. 7.46
7. 9.59

# batch size: 3; output pEC50 per entry
1. O=c1[nH]c(-c2ccc(N3CCC(OCc4c(-c5ccccc5C(F)(F)F)noc4C4CC4)CC3)cn2)no1 [Example 22]
2. Cn1cc(-c2noc(=O)[nH]2)c2cc(N3CCC(OCc4c(-c5c(Cl)cccc5Cl)noc4C4CC4)CC3)ccc21 [Example 19]
3. O=c1[nH]c(-c2ccc(N3CCC(OCc4c(-c5c(Cl)cccc5Cl)noc4C4CC4)C3)cc2)no1 (stereo not drawn) [Example 6]

1. 8.70
2. 6.55
3. 7.49

The reported numbers originate from patent US12240841B2.
